// reported melting point for each item listed
measured parameter: melting point

compound="CO/C=C/c1c(C(=O)NCC(c2ccccc2)c2c(-c3ccccc3)[nH]c3ccccc23)[nH]c2ccc(Cl)cc12 (stereo not shown) [Compound Vg]" measured_parameter="melting point" result="140 to 142 °C"
compound="O=C(NCC(c1ccccc1)c1c(-c2ccccc2)[nH]c2ccccc12)c1cc2cc(Cl)ccc2[nH]1 (stereo not shown) [Compound Va]" measured_parameter="melting point" result="112 to 114 °C"
compound="O=C(NCC(c1ccccc1)c1c(-c2ccccc2)[nH]c2ccccc12)c1[nH]c2ccc(Cl)cc2c1-c1ccccc1 (stereo not shown) [Vf]" measured_parameter="melting point" result="131 to 133 °C"
compound="CCOCc1c(C(=O)NCC(c2ccccc2)c2c(-c3ccccc3)[nH]c3ccccc23)[nH]c2ccc(Cl)cc12 (stereo not shown) [Compound Vh]" measured_parameter="melting point" result="210 to 212 °C"
compound="CCc1c(C(=O)NCC(c2ccccc2)c2c(-c3ccccc3)[nH]c3ccccc23)oc2ccc(Cl)cc12 (stereo not shown) [Vi]" measured_parameter="melting point" result="225 to 227 °C"
compound="NCC(c1ccccc1)c1c(-c2ccccc2)[nH]c2ccccc12 (stereo not shown) [Compound IV]" measured_parameter="melting point" result="167 to 169 °C"
compound="O=C(NCC(c1ccccc1)c1c(-c2ccccc2)[nH]c2ccccc12)c1[nH]c2ccc(Cl)cc2c1CO (stereo not shown) [Ve]" measured_parameter="melting point" result="132 to 134 °C"
compound="CCc1c(C(=O)NCC(c2ccccc2)c2c(-c3ccccc3)[nH]c3ccccc23)[nH]c2ccc(Br)cc12 (stereo not shown) [Vd]" measured_parameter="melting point" result="130 to 132 °C"
compound="CCc1c(C(=O)NCC(c2ccccc2)c2c(-c3ccccc3)[nH]c3ccccc23)[nH]c2ccc(Cl)cc12 (stereo not shown) [Compound Vc]" measured_parameter="melting point" result="110 to 112 °C"
compound="Cc1c(C(=O)NCC(c2ccccc2)c2c(-c3ccccc3)[nH]c3ccccc23)[nH]c2ccc(Cl)cc12 (stereo not shown) [Vb]" measured_parameter="melting point" result="135 to 137 °C"
